readout: melting point

Prompt: Param item = "O=C(O)c1cccc(-c2ccn(-c3ccc(C(F)(F)F)cc3)n2)c1" ; retrieve measured melting point.
Response: 225 to 227 °C

Prompt: Param item = "N#Cc1cccc(-c2ccn(-c3ccccc3)n2)c1" ; retrieve measured melting point.
Response: 78 to 80 °C

Prompt: Param item = "COc1cccc(-n2cc(-c3cccc(C(=O)O)c3)cn2)c1" ; retrieve measured melting point.
Response: 156 to 157 °C

Prompt: Param item = "O=C(O)c1ccc(-c2cnn(-c3ccc(Cl)cc3)c2)cc1" ; retrieve measured melting point.
Response: 259 to 261 °C

Prompt: Param item = "O=C(O)c1cccc(-n2ccc(-c3ccc(Cl)cc3)n2)c1" ; retrieve measured melting point.
Response: 230 to 235 °C

* * *

Listed compounds paired with reported melting point

compound	melting point
O=C(O)c1cccc(-c2ccn(-c3ccc(O)cc3)n2)c1 [Compound 74]	228 to 230 °C
COc1cccc(-n2cc(-c3ccc(C(=O)O)cc3)cn2)c1 [Compound 171]	211 to 212 °C
O=C(O)c1cccc(-n2cc(-c3ccc4c(c3)OCO4)cn2)c1 [Compound 111]	264 to 265 °C
O=C(O)c1cccc(-c2ncn(-c3ccc(N4CCC4=O)cc3)n2)c1 [Compound 44]	295 to 297 °C
O=C(O)c1ccc(-c2ccn(-c3ccc(C(F)(F)F)cc3)c2)cc1 [Compound 105]	315 to 317 °C

Prompt: Param item = Cc1cccc(-n2ccc(-c3ccc(C(=O)O)cc3)c2)c1 [Compound 194] ; retrieve measured melting point.
Response: 212 to 213 °C

* * *

readout: melting point

Reference set (5 entries):
1) O=C(O)c1cccc(-n2cc3c(n2)-c2ccccc2C3)c1 249 to 250 °C
2) O=C(O)c1ccc(-n2cc(-c3ccc([N+](=O)[O-])cc3)cn2)cc1 276 to 277 °C
3) O=C(O)c1ccc(-c2ccn(-c3ccccc3OC(F)(F)F)c2)cc1 164 to 165 °C
4) COc1cccc(-n2ccc(-c3cccc(C#N)c3)n2)c1 100 to 101 °C
5) O=C(O)c1ccc(-c2cnn(-c3ccc4c(c3)OCCO4)c2)cc1 238 to 240 °C

Prompt: Param item = "N#Cc1cccc(-c2ccn(-c3ccc(F)c(F)c3)n2)c1" ; retrieve measured melting point.
Response: 142 to 145 °C

Prompt: Param item = "O=C(O)c1cccc(-c2ncn(-c3ccc(F)cc3)n2)c1" ; retrieve measured melting point.
Response: > 310 °C

Prompt: Param item = "Cc1ccc(-n2cc(-c3ccc(C(=O)O)cc3)cn2)cc1Cl" ; retrieve measured melting point.
Response: 285 to 288 °C

Prompt: Param item = "O=C(O)c1cccc(-c2ccn(-c3cc(F)ccc3F)c2)c1" ; retrieve measured melting point.
Response: 193 to 194 °C

Prompt: Param item = "O=C(O)c1ccc(-c2ccn(-c3ccccc3Cl)c2)cc1" ; retrieve measured melting point.
Response: 200 to 202 °C

* * *

Listed compounds paired with reported melting point

compound	melting point
COc1ccc(-n2cc(-c3cccc(C(=O)O)n3)cn2)cc1 [Compound 53]	122 to 123 °C

Prompt: Param item = O=C(O)c1cccc(-c2ccn(-c3cccc(OCc4ccccc4)c3)n2)c1 [Compound 175] ; retrieve measured melting point.
Response: 152 to 153 °C

Prompt: Param item = O=C(O)c1cccc(-n2cc3c(n2)CCc2ccccc2-3)c1 [Compound 141] ; retrieve measured melting point.
Response: 233 to 234 °C

Prompt: Param item = O=C(O)c1cccc(-c2ccn(-c3ccccc3)n2)c1 [Compound 65] ; retrieve measured melting point.
Response: 202 to 204 °C

Prompt: Param item = O=C(O)c1ccc(-c2ccn(-c3cccc(C(F)(F)F)c3)c2)cc1 [Compound 128] ; retrieve measured melting point.
Response: 209 to 211 °C

Prompt: Param item = Cc1ccc(-c2ccn(-c3cccc(C(=O)O)c3)n2)cc1 [Compound 170, 3-(3-p-Tolyl-pyrazol-1-yl)-benzoic acid] ; retrieve measured melting point.
Response: 180 to 182 °C

Prompt: Param item = O=C(O)c1cccc(-c2cnn(-c3ccc4c(c3)OCO4)c2)c1 [Compound 239] ; retrieve measured melting point.
Response: 221 to 223 °C

Prompt: Param item = O=C(O)c1ccc(-c2ccn(-c3ccccc3)c2)cc1 [Compound 130, 4-(1-Phenyl-1H-pyrrol-3-yl)-benzoic acid] ; retrieve measured melting point.
Response: 239 to 241 °C

Prompt: Param item = O=C(O)c1ccc(-n2cc(-c3ccc(F)cc3)nn2)cc1 [Compound 266] ; retrieve measured melting point.
Response: 321 to 323 °C

Prompt: Param item = O=C(O)c1cccc(-c2ncn(-c3ccccc3F)n2)c1 [Compound 17] ; retrieve measured melting point.
Response: 239 to 241 °C

Prompt: Param item = O=C(O)c1ccc(-n2cc(-c3cccc4ccccc34)nn2)cc1 [Compound 271] ; retrieve measured melting point.
Response: 265 to 266 °C

Prompt: Param item = CC(C)c1ccc(-n2ccc(-c3cccc(C(=O)O)c3)c2)cc1 [Compound 6] ; retrieve measured melting point.
Response: 210 to 215 °C

Prompt: Param item = O=C(O)c1ccc(-n2cc(-c3ccc(C(F)(F)F)cc3)nn2)cc1 [Compound 202] ; retrieve measured melting point.
Response: 305 to 306 °C

Prompt: Param item = O=C(O)c1cccc(-c2ccn(-c3ccccc3F)n2)c1 [Compound 86] ; retrieve measured melting point.
Response: 157 to 158 °C

* * *

readout: melting point

Reference set (8 entries):
1) Cc1ccc(-n2cc(-c3ccc(C(=O)O)cc3)cn2)cc1 280 to 282 °C
2) Cc1ccc(-n2ccc(-c3cccc(C(=O)O)c3)c2)cc1 178 to 181 °C
3) COc1cccc(-c2cnn(-c3ccc(C(=O)O)cc3)c2)c1 222 to 223 °C
4) COc1cccc2c1Cc1cn(-c3cccc(C(=O)O)c3)nc1-2 277 to 278 °C
5) COc1ccc(-n2cnc(-c3cccc(C(=O)O)c3)n2)cc1 230 to 232 °C
6) O=C(O)c1ccc(-n2cc(-c3cccc(OC(F)(F)F)c3)cn2)cc1 225 to 227 °C
7) O=C(O)c1cccc(-c2cnn(-c3ccc(F)cc3F)c2)c1 200 to 202 °C
8) O=C(O)c1cccc(-c2ncn(-c3cc(C(F)(F)F)cc(C(F)(F)F)c3)n2)c1 271 to 273 °C

For the next question, use this compound.
Prompt: Param item = "O=C(O)c1cccc(-c2cnn(-c3ccc4c(c3)OCCO4)c2)c1" ; retrieve measured melting point.
Response: 201 to 203 °C

* * *

Listed compounds paired with reported melting point

Reference set (4 entries):
1) Cc1ccccc1-n1cnc(-c2cccc(C(=O)O)c2)n1 209 to 211 °C
2) CC(C)c1ccc(-c2nn(-c3cccc(C(=O)O)c3)c(=S)o2)cc1 215 to 217 °C
3) Cc1ccccc1-n1nc(-c2cccc(C(=O)O)c2)[nH]c1=O > 310 °C
4) O=C(O)c1ccc(-n2cc3c(n2)-c2cccc(OC(F)F)c2CC3)cc1 282 to 283 °C

For the next question, use this compound.
Prompt: Param item = "N#Cc1cccc(-c2ccn(-c3ccc(OC(F)(F)F)cc3)n2)c1" ; retrieve measured melting point.
Response: 83 to 84 °C

* * *

Listed compounds paired with reported melting point

Reference set (5 entries):
compound	melting point
O=C(O)c1cccc(-c2ncn(-c3ccc(N4CCCC4=O)cc3)n2)c1 [Compound 43]	270 to 273 °C
O=C(O)c1cccc(-n2cnc(-c3ccccc3)n2)c1 [Compound 8]	268 to 271 °C
O=C(O)c1ccc(-c2ccn(-c3ccc(F)c(F)c3)c2)cc1 [Compound 127]	231 to 233 °C
O=C(O)c1cccc(-c2ncn(-c3ccc(OC(F)(F)F)cc3)n2)c1 [Compound 19]	219 to 221 °C
O=C(O)c1ccc(-n2cc(-c3ccccc3)cn2)cc1 [Compound 99, 4-(4-Phenyl-pyrazol-1-yl)-benzoic acid]	267 to 269 °C

Prompt: Param item = COc1ccc(-c2ccc(-n3cnc(-c4cccc(C(=O)O)c4)n3)cc2)cc1 [Compound 27] ; retrieve measured melting point.
Response: 243 to 246 °C

Prompt: Param item = O=C(O)c1ccc(-n2cc(-c3ccccc3Br)nn2)cc1 [Compound 270] ; retrieve measured melting point.
Response: 261 to 262 °C

Prompt: Param item = O=C(O)c1cccc(-c2ccn(-c3ccc(F)cc3)n2)c1 [Compound 96] ; retrieve measured melting point.
Response: 245 to 246 °C

Prompt: Param item = CC(C)c1ccc(-n2nc(-c3ccc(C(=O)O)cc3)oc2=O)cc1 [Compound 276] ; retrieve measured melting point.
Response: 263 to 267 °C

* * *

Listed compounds paired with reported melting point

Reference set (5 entries):
1. CCc1ccccc1-n1cnc(-c2cccc(C(=O)O)c2)n1 176 to 178 °C
2. COc1ccc(-c2cnn(-c3ccc(C(=O)O)cc3)c2)cc1 289 to 290 °C
3. N#Cc1cccc(-c2ccn(-c3ccc4c(c3)OCO4)n2)c1 144 to 147 °C
4. O=C(O)c1cccc(-c2cnn(-c3ccc(Cl)cc3)c2)n1 194 to 196 °C
5. O=C(O)c1ccc(-n2cc(-c3ccccc3F)cn2)cc1 260 to 261 °C

Prompt: Param item = "COc1ccc(-c2cnn(-c3cccc(C(=O)O)c3)c2)cc1" ; retrieve measured melting point.
Response: 238 to 239 °C

Prompt: Param item = "Cc1ccc(-n2cc(-c3ccc(C(=O)O)cc3)cn2)cc1C" ; retrieve measured melting point.
Response: 254 to 256 °C

Prompt: Param item = "O=C(O)c1ccc(-n2cc(-c3cccc(F)c3)nn2)cc1" ; retrieve measured melting point.
Response: 327 to 328 °C

Prompt: Param item = "CCc1ccc(-n2ccc(-c3ccc(C(=O)O)cc3)c2)cc1" ; retrieve measured melting point.
Response: 278 to 280 °C

Prompt: Param item = "O=C(O)c1cccc(-n2cc(-c3ccncc3)cn2)c1" ; retrieve measured melting point.
Response: 300 to 302 °C
